Each record here notes measured inhibition.
- assayExplanation: inhibitors of TNFa-induced NFkB p65 translocation, primary screen, imaging, HUVEC, MLSMR starter and 10KST1 sets (AID 438);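 further: compound added about 3h40 before a 20 min TNFalpha stimulation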;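 on inhibition: signal is the nuclear over cytoplasmic p65 intensity ratio per well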
- assayContext: HUVEC TNFa-induced p65 nuclear translocation; at 2 µM, stronger effect = higher value, 0% TNFa-plus-vehicle, 100% no-TNFa wells
Calls of active or inactive are those of the source.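 How the source made its calls: active means inhibition above 20% together with a positive visual image hit; inconclusive means visual image hit but inhibition not above 20%; inactive means no visual image hit.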

# compound, inhibition
rows = [
    ("COc1ccc(-c2noc(CSc3nc4ccccc4c(=O)n3-c3ccccc3)n2)cc1OC", "-1.8% (inactive)"),
]

Query: Entry under review: O=C(Cn1cnc2ccccc2c1=O)NCCC(=O)N1CCN(Cc2ccccc2)CC1 . Reported inhibition?
Response: -3.8% (inactive)

Query: Also CCOc1cc(N2CCOCC2)c(OCC)cc1NC(=O)CSc1cccc[n+]1[O-] , if possible.
Response: 10.6% (inactive)

Query: Follow-up entry: CCOc1ccc(N(CC(=O)NC2CCCC2)S(=O)(=O)c2c(C)[nH]c(=O)[nH]c2=O)cc1
Response: 14% (inactive)

Query: Entry CC1(C)CN=C(N2CCN(c3ncnc4sc5c(c34)CCCC5)CC2)S1 please
Response: 4.1% (inactive)

* * *

- assayExplanation: inhibitors of TNFa-induced NFkB p65 translocation, primary screen, imaging, HUVEC, MLSMR starter and 10KST1 sets (AID 438);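 further: compound added about 3h40 before a 20 min TNFalpha stimulation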
- assayContext: HUVEC TNFa-induced p65 nuclear translocation; measured here: nuclei count (cytotoxicity indicator), at 2.08 µM
Measured cell count, listed per entry.
Respond numerically, and do not add a unit to the figure.

# molecule, measurementName, measValue
measured = [
    ("CC(Sc1n[nH]c(=O)[nH]c1=O)C(=O)OCc1ccccc1 (stereo unspecified)", "cell count", 281),
    ("COc1ccc(N2C(=O)C(Cl)=C(Nc3c(C)n(C)n(-c4ccccc4)c3=O)C2=O)cc1", "cell count", 607),
]

Query: # lookup: cell count of c1cnc(NCCNc2ncccn2)nc1
Response: 709

Query: And for O=C(c1ccc(=O)[nH]c1)N(Cc1ccco1)C1(C(=O)NC2CCCC2)CCCCC1 ?
Response: 296

Query: Lookup COc1cccc(NC(=O)C2CCN(c3ncccn3)CC2)c1
Response: 746

Query: Now the molecule Cc1cc2c(=O)n(Cc3ccco3)c(SCC(=O)NCc3ccco3)nc2s1
Response: 502

* * *

- assayExplanation: TLR3 IRF3 reporter activation blockers – cell-based, poly I:C stimulus, luciferase, 10K MLSCN set, primary screen (AID 602277)
- assayContext: HEK293-TLR3 RL24 IRF3 luciferase reporter, at 10 µM, stronger effect = higher value
We use 20% as the dividing line for inhibition: on or above the line is Criterion met, below is Criterion not met.

# compound, assignedClass
measured = [
    ("Cc1ccc(Nc2nc(N)nc(CN3CCN(Cc4ccc5c(c4)OCO5)CC3)n2)cc1", "Criterion not met"),
    ("FC(F)(F)c1nnc2ccc(NCn3nnc4ccccc43)nn12", "Criterion not met"),
]

Query: Answer whether inhibition of O=C(NC1CCCCC1)N(Cc1ccc(F)cc1)Cc1nc2ccccc2c(=O)[nH]1 is greater than or equal to 20%.
Response: Criterion met

Query: Now give it for O=C(OCC(=O)N1CCCC1)c1cncc(Br)c1 too.
Response: Criterion not met

Query: Moving on to the next compound: O=C(Nc1ccccc1C(=O)N1CCCCCC1)c1cccc(S(=O)(=O)N2CCOCC2)c1
Response: Criterion not met

Query: Please answer likewise for Cn1c(=O)c2c(nc(NCC3CCCO3)n2C)n(C)c1=O (centres undefined)
Response: Criterion not met

Query: Do the same for COc1cccc(-n2c(CNc3ccc(F)cc3)nnc2SCC(N)=O)c1 please
Response: Criterion met

Query: Now consider CCOC(=O)C1CCN(S(=O)(=O)c2cc(Cl)c(C)cc2OC)CC1 .
Response: Criterion met

Query: Follow-up item: CC(C)(C)c1ccc2c(c1)OCC(C(=O)O)O2 (centres undefined)
Response: Criterion not met

Query: Also CCN(CC)CCOC(=O)c1cccc(OC)c1 , if possible.
Response: Criterion not met

Query: Likewise for CCSc1nnc(N2C(=O)CC(c3ccsc3)C3=C2CC(C)(C)CC3=O)s1 (centres undefined) ?
Response: Criterion met

Query: And for CCn1c(Cc2ccccc2)nnc1SCC(=O)Nc1nc2ccccc2s1 ?
Response: Criterion not met

Query: Try Cc1cccc(NCc2ccccc2O)c1 next.
Response: Criterion not met

Query: Record: COc1ccc(C(O)Cn2c(=N)n(CCCN(C)C)c3ccccc32)cc1 (centres undefined)
Response: Criterion not met

Query: What about this compound? CC(=O)c1ccc(NC(=O)CCc2c(C)nc3ncnn3c2C)cc1
Response: Criterion not met

Query: Similarly, COC(=O)C1=C(N)OC2=C(C(=O)CCC2)C1c1cccs1 (centres undefined) ?
Response: Criterion met

Query: Would you mind doing O=C(NCc1ccc2c(c1)OCO2)C1CCC(CNc2c(N3CCCCC3)c(=O)c2=O)CC1 (centres undefined) as well?
Response: Criterion met

Query: Same again, this time with O=C(Cn1c(=O)n(Cc2ccc3c(c2)OCO3)c(=O)c2ccccc21)N1CCCc2ccccc21
Response: Criterion met

Query: Field entry: Cc1ccc2cc(C(c3nnnn3C3CCCC3)N3CCN(c4ccc(F)cc4)CC3)c(=O)[nH]c2c1 (centres undefined)
Response: Criterion met

Query: Lookup CCOC(=O)c1cccc(NC(=O)CSc2nc3cccnc3n2C)c1
Response: Criterion not met

Query: Could you do the same for Cc1ccc(-c2nc3cc(N)ccc3o2)cc1 , please?
Response: Criterion not met

Query: And then Cc1cccc(N(CC(=O)Nc2ccc(CC#N)cc2)S(C)(=O)=O)c1 , what is it?
Response: Criterion met

Query: Also need CC(=O)N1CCc2cc(S(=O)(=O)NCCC3=CCCCC3)ccc21 , thanks.
Response: Criterion not met

Query: And what about the compound COc1ccc(-c2nc(CCNC(=O)c3ccco3)cs2)cc1OC ?
Response: Criterion not met
